Assay Remarks: Distribution of mecamylamine into ocular tissue of rabbits following intravenous administration (Example 9)
Type: in vivo, New Zealand white rabbit
Applied Conditions: male, New Zealand White, rabbit, plasma, iv, 15 mg/kg, 15 mg/kg i.v. 1 hr infusion, hour 4, read-out: Concentration of mecamylamine in the plasma, Mean

Compound	Value Unit	concentration at 4 h
CNC1(C)C2CCC(C2)C1(C)C (stereo not shown)	ng/mL	227

* * *

Assay Remarks: Distribution of mecamylamine into ocular tissue of rabbits following intravenous administration (Example 9)
Format: in vivo, New Zealand white rabbit
Applied Conditions: male, New Zealand white, rabbit, vitreous humor, iv, 15 mg/kg, 15 mg/kg i.v. 1 hr infusion, hour 1, read-out: Concentration of mecamylamine in the vitreous humor, Mean

Compound	concentration at 1 h / ng/mL
CNC1(C)C2CCC(C2)C1(C)C (stereo not shown) [mecamylamine]	1110

* * *

Assay Remarks: Toxicokinetics in the 14-day dog study (Example 13)
Format: in vivo
Applied Conditions: both sexes, beagle, dog, in vivo, topical or ocular, 3 mg/eye/day, Group 2, read-out: Cmax, highest overall value
Parameter Measured: Cmax (ng/mL)

Compound	Value Unit	Reported
CNC1(C)C2CCC(C2)C1(C)C (stereo not shown) [mecamylamine]	ng/mL	185

* * *

Assay Remarks: in vivo
Applied Conditions: male, Dutch-belted, rabbit, in vivo

Compound	Kp at 1 h
CNC1(C)C2CCC(C2)C1(C)C (stereo not shown)	≥ 1000

* * *

Assay Remarks: 6-hour ocular pharmacokinetics of 2% Mecamylamine GELRITE solution following topical instillation (Example 10)
Format: in vivo, New Zealand White rabbit
Applied Conditions: female, New Zealand White, rabbit, retina, topical, 2% in GELRITE, 2 × 50 μL, OU (bilateral), 3 hr, read-out: Mecamylamine concentration in Retina, Mean
Parameter Measured: concentration at 3 h

Molecule	Parameter Measured	Reported
CNC1(C)C2CCC(C2)C1(C)C (stereo not shown)	concentration at 3 h	563 ng/g

* * *

Assay Remarks: Distribution of mecamylamine into ocular tissue of rabbits following intravenous administration (Example 9)
Format: in vivo, New Zealand white rabbit
Applied Conditions: male, New Zealand white, rabbit, vitreous humor, iv, 15 mg/kg, 15 mg/kg i.v. 6 hr infusion, hour 1, read-out: Concentration of mecamylamine in the vitreous humor, Mean

Compound	Value Unit	concentration at 1 h
CNC1(C)C2CCC(C2)C1(C)C (stereo not shown) [mecamylamine]	ng/mL	138

* * *

Assay Remarks: 6-hour ocular pharmacokinetics of 2% Mecamylamine GELRITE solution following topical instillation (Example 10)
Assay type: in vivo, New Zealand White rabbit
Applied Conditions: female, New Zealand White, rabbit, cornea, topical, 2% in GELRITE, 2 × 50 μL, OS (unilateral) treated eye, 1 hr, read-out: Mecamylamine concentration in Cornea, Mean

Compound	concentration at 1 h / ng/g
CNC1(C)C2CCC(C2)C1(C)C (stereo not shown)	9600

* * *

Assay Remarks: 6-hour ocular pharmacokinetics of 2% Mecamylamine GELRITE solution following topical instillation (Example 10)
Format: in vivo, New Zealand White rabbit
Applied Conditions: female, New Zealand White, rabbit, blood cell fraction, topical, group MEC OU 6 hr, Post, read-out: Mecamylamine concentration in blood Cell Fraction, Mean

Molecule	concentration at 6 h (ng/mL)
CNC1(C)C2CCC(C2)C1(C)C (stereo not shown)	1.2

* * *

Assay Remarks: 6-hour ocular pharmacokinetics of 2% Mecamylamine GELRITE solution following topical instillation (Example 10)
Assay type: in vivo, New Zealand White rabbit
Applied Conditions: female, New Zealand White, rabbit, plasma, topical, group MEC OU 6 hr, Post, read-out: Mecamylamine concentration in blood Plasma, Mean

Compound	concentration at 6 h (ng/mL)
CNC1(C)C2CCC(C2)C1(C)C (stereo not shown)	0.3

* * *

Assay Remarks: Distribution of mecamylamine into ocular tissue of rabbits following intravenous administration (Example 9)
Type: in vivo, New Zealand white rabbit
Applied Conditions: male, New Zealand white, rabbit, vitreous humor, iv, 15 mg/kg, 15 mg/kg i.v. 1 hr infusion, hour 6, read-out: Concentration of mecamylamine in the vitreous humor, Mean

Compound	concentration at 6 h
CNC1(C)C2CCC(C2)C1(C)C (stereo not shown)	174 ng/mL

* * *

Assay Remarks: 6-hour ocular pharmacokinetics of 2% Mecamylamine GELRITE solution following topical instillation (Example 10)
Type: in vivo, New Zealand White rabbit
Applied Conditions: female, New Zealand White, rabbit, blood cell fraction, topical, group MEC OS 1 hr, Post, read-out: Mecamylamine concentration in blood Cell Fraction, Mean

Compound	Value Unit	concentration at 1 h
CNC1(C)C2CCC(C2)C1(C)C (stereo not shown) [mecamylamine]	ng/mL	15

* * *

Assay Remarks: Distribution of mecamylamine into ocular tissue of rabbits following intravenous administration (Example 9)
Type: in vivo, New Zealand white rabbit
Applied Conditions: male, New Zealand white, rabbit, vitreous humor, iv, 15 mg/kg, 15 mg/kg i.v. 6 hr infusion, hour 2, read-out: Concentration of mecamylamine in the vitreous humor, Mean

Molecule	concentration at 2 h / ng/mL
CNC1(C)C2CCC(C2)C1(C)C (stereo not shown) [mecamylamine]	223

* * *

Assay Remarks: 6-hour ocular pharmacokinetics of 2% Mecamylamine GELRITE solution following topical instillation (Example 10)
Assay type: in vivo, New Zealand White rabbit
Applied Conditions: female, New Zealand White, rabbit, vitreous humor, topical, 2% in GELRITE, 2 × 50 μL, OS (unilateral) treated eye, 1 hr, read-out: Mecamylamine concentration in Vitreous humor, Mean

Compound	Value Unit	concentration at 1 h
CNC1(C)C2CCC(C2)C1(C)C (stereo not shown)	ng/g	37.8

* * *

Assay Remarks: Distribution of mecamylamine into ocular tissue of rabbits following intravenous administration (Example 9)
Assay type: in vivo, New Zealand white rabbit
Applied Conditions: male, New Zealand white, rabbit, vitreous humor, iv, 15 mg/kg, 15 mg/kg i.v. 1 hr infusion, hour 0, read-out: Concentration of mecamylamine in the vitreous humor, Mean
Parameter Measured: concentration at 0 h

Molecule	Parameter Measured	Reported
CNC1(C)C2CCC(C2)C1(C)C (stereo not shown)	concentration at 0 h	43 ng/mL

* * *

Assay Remarks: Distribution of mecamylamine into ocular tissue of rabbits following intravenous administration (Example 9)
Assay type: in vivo, New Zealand white rabbit
Applied Conditions: male, New Zealand white, rabbit, vitreous humor, iv, 15 mg/kg, 15 mg/kg i.v. 6 hr infusion, hour 0.5, read-out: Concentration of mecamylamine in the vitreous humor, Mean
Description: Mecamylamine was administered intravenously to male New Zealand white rabbits (approximately 2.5-3 kg (Kralek Frams, Turlock, Calif.)) at a dose of 15 mg/kg (dissolved in sterile 0.9% NaCl for injection) over either over 60 minutes or 6 hours. Drug concentrations were measured as described previously at different time points in the plasma, the vitreous and at 6 hours in the retina-choroid tissue. […] Clinical observations were recorded periodically throughout the study. […]

Compound	concentration at 0.5 h
CNC1(C)C2CCC(C2)C1(C)C (stereo not shown)	59.9 ng/mL

* * *

Assay Remarks: Distribution of mecamylamine into ocular tissue of rabbits following intravenous administration (Example 9)
Format: in vivo, New Zealand white rabbit
Applied Conditions: male, New Zealand white, rabbit, vitreous humor, iv, 15 mg/kg, 15 mg/kg i.v. 1 hr infusion, hour 0.5, read-out: Concentration of mecamylamine in the vitreous humor, Mean

Compound	concentration at 0.5 h
CNC1(C)C2CCC(C2)C1(C)C (stereo not shown)	717 ng/mL

* * *

Assay Remarks: Distribution of mecamylamine into ocular tissue of rabbits following intravenous administration (Example 9)
Assay type: in vivo, New Zealand white rabbit
Applied Conditions: male, New Zealand white, rabbit, plasma, iv, 15 mg/kg, 15 mg/kg i.v. 6 hr infusion, hour 0.5, read-out: Concentration of mecamylamine in the plasma, Mean
Parameter Measured: concentration at 0.5 h (ng/mL)

Compound	Parameter Measured	Reported
CNC1(C)C2CCC(C2)C1(C)C (stereo not shown)	concentration at 0.5 h	350

* * *

Assay Remarks: Distribution of mecamylamine into ocular tissue of rabbits following intravenous administration (Example 9)
Type: in vivo, New Zealand white rabbit
Applied Conditions: male, New Zealand white, rabbit, vitreous humor, iv, 15 mg/kg, 15 mg/kg i.v. 6 hr infusion, hour 6, read-out: Concentration of mecamylamine in the vitreous humor, Mean

Molecule	concentration at 6 h (µg/mL)
CNC1(C)C2CCC(C2)C1(C)C (stereo not shown)	0.458

* * *

Assay Remarks: 6-hour ocular pharmacokinetics of 2% Mecamylamine GELRITE solution following topical instillation (Example 10)
Assay type: in vivo, New Zealand White rabbit
Applied Conditions: female, New Zealand White, rabbit, blood cell fraction, topical, group MEC OU 1 hr, Post, read-out: Mecamylamine concentration in blood Cell Fraction, Mean

Molecule	concentration at 1 h, ng/mL
CNC1(C)C2CCC(C2)C1(C)C (stereo not shown)	33.1
